Assay method text: aqueous solubility as a function of pH
Assay type: physicochemical
Experimental conditions: aqueous buffer; neutral form / free base, room temperature, pH 6.8
Parameter measured: solubility

CN(C)Cc1nccn1-c1ccc(NC(=O)c2cc(C(F)(F)F)nn2-c2ccc3onc(N)c3c2)c(F)c1.Cl: < 1 µg/mL

Next, consider the following compound.
Asked: I have this compound here, COc1ccc(-n2nc(C(N)=O)c3c2C(=O)N(c2ccc(N4CCCCC4=O)cc2)CC3)cc1 , and I need its recorded solubility.
Given back: < 1 µg/mL
